# TARGET_OR_SYSTEM: PI3Kγ (p110γ) Recombinant Human Protein (Homo sapiens (Human), UniProt P48736)
# Sequence (P48736 whole entry): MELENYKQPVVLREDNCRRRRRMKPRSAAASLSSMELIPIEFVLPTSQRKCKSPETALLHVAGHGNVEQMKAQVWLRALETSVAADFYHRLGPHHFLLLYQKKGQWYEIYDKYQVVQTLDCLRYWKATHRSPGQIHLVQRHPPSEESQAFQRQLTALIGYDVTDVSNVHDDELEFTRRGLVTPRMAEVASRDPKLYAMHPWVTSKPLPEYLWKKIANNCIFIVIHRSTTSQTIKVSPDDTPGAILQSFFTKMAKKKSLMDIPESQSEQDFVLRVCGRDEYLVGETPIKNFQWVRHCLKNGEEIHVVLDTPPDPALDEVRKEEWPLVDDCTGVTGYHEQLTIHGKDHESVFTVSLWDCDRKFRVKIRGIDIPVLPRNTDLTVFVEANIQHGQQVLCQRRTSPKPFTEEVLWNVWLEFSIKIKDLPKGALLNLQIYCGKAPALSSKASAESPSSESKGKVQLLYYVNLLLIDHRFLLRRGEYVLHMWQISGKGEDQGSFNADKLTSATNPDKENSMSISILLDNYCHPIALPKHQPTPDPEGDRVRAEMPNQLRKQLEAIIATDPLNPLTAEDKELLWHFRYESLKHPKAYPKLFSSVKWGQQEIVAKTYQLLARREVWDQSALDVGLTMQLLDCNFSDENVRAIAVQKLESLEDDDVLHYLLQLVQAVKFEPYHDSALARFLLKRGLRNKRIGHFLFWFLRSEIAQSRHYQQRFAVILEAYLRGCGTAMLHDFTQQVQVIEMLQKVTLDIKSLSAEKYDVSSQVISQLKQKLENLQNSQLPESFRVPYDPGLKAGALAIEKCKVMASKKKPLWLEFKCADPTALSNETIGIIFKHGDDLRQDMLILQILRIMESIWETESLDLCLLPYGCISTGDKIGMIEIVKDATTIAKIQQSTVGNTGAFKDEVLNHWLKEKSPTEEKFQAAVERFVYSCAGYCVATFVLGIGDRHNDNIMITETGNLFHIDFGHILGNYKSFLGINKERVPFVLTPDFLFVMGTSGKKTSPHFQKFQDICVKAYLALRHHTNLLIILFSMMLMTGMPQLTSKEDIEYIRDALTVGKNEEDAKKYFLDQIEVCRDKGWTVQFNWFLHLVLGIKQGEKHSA
# PROTOCOL: PI3K-γ Scintillation Proximity Assay
# STUDY_CONDITIONS: read-out: PI3K-gamma SPA IC50
# Description: Example B. PI3K-γ Scintillation Proximity Assay [γ-^33P]ATP (10 mCi/mL) and Wheat Germ Agglutinin (WGA) YSi SPA Scintillation Beads was purchased from Perkin-Elmer (Waltham, Mass.). Lipid kinase substrate, D-myo-Phosphatidylinositol 4,5-bisphosphate (PtdIns(4,5)P2)D (+)-sn-1,2-di-O-octanoylglyceryl, 3-O-phospho linked (PIP2), CAS 204858-53-7, was purchased from Echelon Biosciences (Salt Lake City, Utah). […]
Structures can show the parent of a compound that is named as a salt.
MEASUREMENT_TYPE: IC50

(Q) Report measured IC50; entry is Cc1nc(-c2cc(C3=CCCN(Cc4ccc(Cl)cc4)C3)ccn2)[nH]c1C [Example 224, trifluoroacetate salt]
(A) > 500 nM

(Q) Report measured IC50; entry is COc1cncc(-c2ccnc(-c3ncc(C(C)(C)C)[nH]3)c2)c1 [Example 88, trifluoroacetate salt]
(A) ≤ 500 nM

(Q) Report measured IC50; entry is COC(=O)c1nc(-c2cc(-c3cncc(N4CCOCC4)c3)ccn2)[nH]c1C
(A) ≤ 100 nM

(Q) Report measured IC50; entry is Cc1nc(-c2cc(C3=CCCN(Cc4ccccc4)C3)ccn2)[nH]c1C [Example 223, trifluoroacetate salt]
(A) > 500 nM

(Q) Report measured IC50; entry is CNC(=O)CCn1cc(-c2ccnc(-c3ncc(-c4ccccc4)[nH]3)c2)cn1 [Example 58, trifluoroacetate salt]
(A) > 500 nM

(Q) Report measured IC50; entry is Cc1[nH]c(-c2cc(-c3cncc(N4CCOCC4)c3)ccn2)nc1C(=O)N[C@H](C)c1ccccc1 [Example 274, trifluoroacetate salt]
(A) ≤ 50 nM

(Q) Report measured IC50; entry is Cc1nc(-c2cc(-c3cncc(C(=O)NCC4CCOCC4)c3)ccn2)[nH]c1C [Example 162, trifluoroacetate salt]
(A) ≤ 500 nM

(Q) Report measured IC50; entry is CS(=O)(=O)N1CCC(c2c[nH]c(-c3cc(-c4cnn(Cc5ccc(Cl)cc5)c4)ccn3)n2)C1 (single isomer, unassigned) [Example 300, Trifluoroacetate Salt]
(A) ≤ 50 nM

(Q) Report measured IC50; entry is Cc1nc(-c2cc(-c3cncc(C(=O)N4CCCC(c5ccccc5)C4)c3)ccn2)[nH]c1C (racemic) [Example 188, trifluoroacetate salt]
(A) ≤ 500 nM

(Q) Report measured IC50; entry is CC(=O)N1CC=C(c2ccnc(-c3nc(C)c(C)[nH]3)c2)C1 [Example 226, trifluoroacetate salt]
(A) > 500 nM

(Q) Report measured IC50; entry is COCC(=O)Nc1cncc(-c2ccnc(-c3ncc(-c4ccccc4)[nH]3)c2)c1 [Example 131, Trifluoroacetate Salt]
(A) ≤ 50 nM

(Q) Report measured IC50; entry is COC1CN(C(=O)c2cncc(-c3ccnc(-c4nc(C)c(C)[nH]4)c3)c2)C1
(A) ≤ 50 nM

(Q) Report measured IC50; entry is Cc1nc(-c2cc(-c3cncc(NC(=O)OC(C)(C)C)c3)ccn2)[nH]c1C
(A) ≤ 500 nM

(Q) Report measured IC50; entry is Cc1nc(-c2cc(-c3cncc(C(=O)NCC4CCC4)c3)ccn2)[nH]c1C [Example 206, trifluoroacetate salt]
(A) ≤ 100 nM

(Q) Report measured IC50; entry is Cc1[nH]c(-c2cc(-c3cncc(S(C)(=O)=O)c3)ccn2)nc1C(=O)NC1CCOCC1 [Example 254, trifluoroacetate salt]
(A) ≤ 50 nM

(Q) Report measured IC50; entry is N#Cc1cccc(Cn2cc(-c3ccnc(-c4ncc(-c5ccccc5)[nH]4)c3)cn2)c1 [Example 20, trifluoroacetate salt]
(A) ≤ 500 nM

(Q) Report measured IC50; entry is Cc1[nH]c(-c2cc(-c3cncc(N4CCOCC4)c3)ccn2)nc1C(=O)N[C@@H](C)c1ccccc1 [Example 273, trifluoroacetate salt]
(A) ≤ 50 nM

(Q) Report measured IC50; entry is Cn1ccnc1-c1ccnc(-c2ncc(-c3ccccc3)[nH]2)c1 [Example 16, trifluoroacetate salt]
(A) > 500 nM

(Q) Report measured IC50; entry is COc1cncc(-c2ccnc(-c3nc4ccccc4[nH]3)n2)c1 [Example 94, Trifluoroacetate Salt]
(A) ≤ 500 nM

(Q) Report measured IC50; entry is Cc1n[nH]c(C)c1-c1ccnc(-c2ncc(-c3ccccc3)[nH]2)c1 [Example 11, trifluoroacetate salt]
(A) > 500 nM

(Q) Report measured IC50; entry is COc1cncc(-c2ccnc(-c3cnc(NCC(C)C)[nH]3)c2)c1 [Example 64, trifluoroacetate salt]
(A) ≤ 500 nM

(Q) Report measured IC50; entry is CS(=O)(=O)c1cncc(-c2ccnc(-c3ncc(C4CCC4)[nH]3)c2)c1 [Example 113, trifluoroacetate salt]
(A) ≤ 50 nM

src = patent US11352340B2
